Biological target: PCSK9 (Homo sapiens, UniProt Q8NBP7)
Construct: Biotinylated PCSK9 was obtained commercially; purchased
Sequence (Q8NBP7 153-692): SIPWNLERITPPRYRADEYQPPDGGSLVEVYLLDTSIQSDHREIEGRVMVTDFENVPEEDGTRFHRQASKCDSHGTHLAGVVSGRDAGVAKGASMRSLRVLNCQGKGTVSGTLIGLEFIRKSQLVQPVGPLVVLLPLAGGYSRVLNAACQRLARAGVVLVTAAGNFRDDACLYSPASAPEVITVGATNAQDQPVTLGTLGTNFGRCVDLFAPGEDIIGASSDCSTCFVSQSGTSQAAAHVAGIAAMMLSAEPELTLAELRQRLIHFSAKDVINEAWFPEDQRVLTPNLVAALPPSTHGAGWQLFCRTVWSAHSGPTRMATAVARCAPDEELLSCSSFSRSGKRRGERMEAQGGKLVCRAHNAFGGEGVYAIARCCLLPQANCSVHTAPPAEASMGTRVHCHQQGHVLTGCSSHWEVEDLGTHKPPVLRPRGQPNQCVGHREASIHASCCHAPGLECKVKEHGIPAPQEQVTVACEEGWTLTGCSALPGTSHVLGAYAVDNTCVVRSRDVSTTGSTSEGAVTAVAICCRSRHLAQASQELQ
Experiment: PCSK9 Alexa FRET Ultra TR-FRET assay (displacement of AlexaFluor647 tagged cyclic peptide)
Format: binding
Conditions: Ki Ultra, 0.5 nM biotinylated PCSK9, 960 nM AF cyclic peptide; Ki calculated from IC50 and KD of AF peptide
I'd be grateful if you could share measured Ki for these entries.
Answers are plain numbers, in pM.

Take a look at these entries with their results.
COc1ccc(C[C@@H]2NC(=O)[C@H]([C@@H](C)O)NC(=O)[C@@H]3[C@@H]4CCN3C(=O)[C@@H]3Cc5cn(c6ccc(F)cc56)CCCCCOCc5cc(ccc5CNC(=O)CCC(=O)N[C@@H](C)C(=O)N[C@H](CNC(=O)CCCCC[N+](C)(C)C)C(=O)N[C@@H](Cc5cccc(c5)CNC(=O)CO4)C(=O)N3)CCNC(=O)[C@]3(C)CCCN3C2=O)cc1
4.14
COCC[N+](C)(C)CCCCCC(=O)NC[C@H]1NC(=O)[C@H](C)NC(=O)CCC(=O)N2CCCCCCn3cc(c4cc(F)ccc43)C[C@@H]3NC(=O)[C@H](Cc4cccc(c4)CNC(=O)CO[C@H]4CCN(C3=O)[C@@H]4C(=O)N[C@@H]([C@@H](C)O)C(=O)N[C@@H](Cc3ccc(OC)cc3)C(=O)N3CCC[C@@]3(C)C(=O)NCCc3ccc(cc3)C2)NC1=O
1.96

For the next question, use this molecule.
Req: Entry under review: COc1ccc(C[C@@H]2NC(=O)[C@H]([C@@H](C)O)NC(=O)[C@@H]3[C@@H]4CCN3C(=O)[C@@H]3Cc5cn(c6ccc(F)cc56)CCCCCCN(Cc5ccc(cc5)CCNC(=O)[C@]5(C)CCCN5C2=O)C(=O)CCC(=O)N[C@@H](CCCC[N+](C)(C)C)C(=O)N[C@H](CNC(=O)CCOCCOCC[N+](C)(C)C)C(=O)N[C@@H](Cc2cccc(c2)CNC(=O)CO4)C(=O)N3)cc1 (stereo in doubt) . Reported Ki?
Resp: 7.67

* * *

Biological target: PCSK9 (Homo sapiens, UniProt Q8NBP7)
Construct: Biotinylated PCSK9 was obtained commercially; purchased
Experiment: PCSK9 Alexa FRET Ultra TR-FRET assay (displacement of AlexaFluor647 tagged cyclic peptide)
Assay type: binding
Details: 0.5 nM biotinylated PCSK9, 960 nM AF cyclic peptide; Ki calculated from IC50 and KD of AF peptide; read-out: Ki Ultra
Description: The following is a description of the assays used to determine activity of compounds of the invention, and any comparator compounds reported, toward PCSK9 antagonism. Biotinylated PCSK9 was obtained commercially. A solution containing 1 nM biotinylated PCSK9+2.5 nM Lance Streptavidin Europium (Strep-Eu) is made in 50 mM HEPES pH 7.4, 0.15 M NaCl, 5 mM CaCl2, 0.01% BSA, and 0.01% Surfactant P20. […] IC50 values are determined by fitting data to a sigmoidal dose-response curve using nonlinear regression. […]
pKi: −log10 of the molar value.
I would appreciate it if you labelled entries yes when pKi is 10 or higher, otherwise no.

COc1ccc(C[C@@H]2NC(=O)[C@H]([C@@H](C)O)NC(=O)[C@@H]3[C@@H]4CCN3C(=O)[C@@H]3Cc5cn(c6ccc(F)cc56)Cc5cn(nn5)C[C@@H](NC(=O)CCC(=O)N[C@@H](CNC(=O)CCOCCOCC[N+](C)(C)C)C(=O)N[C@H](C)C(=O)N[C@@H](Cc5cccc(c5)CNC(=O)CO4)C(=O)N3)c3ccc(cc3)CCNC(=O)[C@]3(C)CCCN3C2=O)cc1
no
COc1ccc(C[C@@H]2NC(=O)[C@H]([C@@H](C)O)NC(=O)[C@@H]3[C@@H]4CCN3C(=O)[C@@H]3Cc5cn(c6ccc(F)cc56)C/C=C/CCCN(Cc5ccc(cc5)CCNC(=O)[C@]5(C)CCCN5C2=O)C(=O)CCC(=O)N[C@@H](C)C(=O)N[C@H](CNC(=O)CCCCC[N+](C)(C)C)C(=O)N[C@@H](Cc2cccc(c2)CNC(=O)CO4)C(=O)N3)cc1
yes
COc1ccc(C[C@@H]2NC(=O)[C@H]([C@@H](C)O)NC(=O)[C@@H]3[C@@H]4CCN3C(=O)[C@@H]3Cc5cn(c6ccc(F)cc56)C/C=C/CCCN(Cc5ccc(cc5)CCNC(=O)[C@]5(C)CCCN5C2=O)C(=O)CCC(=O)N[C@@H](CNC(=O)CCOCCOCC[N+](C)(C)C)C(=O)N[C@H](C)C(=O)N[C@@H](Cc2cccc(c2)CNC(=O)CO4)C(=O)N3)cc1
yes
COc1ccc(C[C@@H]2NC(=O)[C@H]([C@@H](C)O)NC(=O)[C@@H]3[C@@H]4CCN3C(=O)[C@@H]3Cc5cn(c6ccc(F)cc56)CCCCCN(Cc5ccc(cc5)CCNC(=O)[C@]5(C)CCCN5C2=O)C(=O)CCC(=O)N[C@@H](C)C(=O)N[C@H](CNC(=O)CCOCCOCC[N+](C)(C)C)C(=O)N[C@@H](Cc2cccc(c2)CNC(=O)CO4)C(=O)N3)cc1
yes
COc1ccc(C[C@@H]2NC(=O)[C@H]([C@@H](C)O)NC(=O)[C@@H]3[C@@H]4CCN3C(=O)[C@@H]3Cc5cn(c6ccc(F)cc56)Cc5cn(nn5)CCN(Cc5ccc(cc5)CCNC(=O)[C@]5(C)CCCN5C2=O)C(=O)CCC(=O)N[C@@H](CNC(=O)CCOCCOCC[N+](C)(C)C)C(=O)N[C@H](C)C(=O)N[C@@H](Cc2cccc(c2)CNC(=O)CO4)C(=O)N3)cc1
no

Could you now consider this next compound?
Req: Given the entry COc1ccc(C[C@@H]2NC(=O)[C@H]([C@@H](C)O)NC(=O)[C@@H]3[C@@H]4CCN3C(=O)[C@@H]3Cc5cn(c6ccc(F)cc56)CCCCN(Cc5ccc(cc5)CCNC(=O)[C@]5(C)CCCN5C2=O)C(=O)CCC(=O)N[C@@H](C)C(=O)N[C@H](CNC(=O)CCC(=O)NC2OC(CO)C(O)C(O)C2O)C(=O)N[C@@H](Cc2cccc(c2)CNC(=O)CO4)C(=O)N3)cc1 (stereo partly drawn) , answer whether its pKi meets or surpasses 10.
Resp: yes
